Observed IC50 values for PAK2 (Homo sapiens, UniProt Q13177) are listed in what follows.
ASSAY_ENDPOINT: IC50

INSERT INTO assay_data (molecule, assay_system, observed) VALUES
  ('CC(C)(C)OC(=O)Nc1ncsc1C#CCN1C(=O)c2ccccc2C1=O', 'PAK2 (Homo sapiens, UniProt Q13177)', '> 1000 nM'),
  ('Nc1ncsc1C#Cc1cccc(O)c1', 'PAK2 (Homo sapiens, UniProt Q13177)', '> 1000 nM'),
  ('c1ccc(Cc2c[nH]c3ncsc23)cc1 [Compound A7, 6-benzyl-4H-pyrrolo[2,3-d]thiazole]', 'PAK2 (Homo sapiens, UniProt Q13177)', '1000 to 10000 nM'),
  ('CC(C)(C)OC(=O)Nc1nc(-c2ccncc2)sc1C#CCN1CCOCC1', 'PAK2 (Homo sapiens, UniProt Q13177)', '> 1000 nM'),
  ('Nc1ncsc1C#Cc1cnc2[nH]ccc2c1', 'PAK2 (Homo sapiens, UniProt Q13177)', '> 1000 nM');
